Test system: HCT 116
Assay: CellTiter-Blue Cell Viability Assay
Type: cell-based
Conditions: Homo sapiens, 96 h; HCT 116, KRASmut, CTNNB1mut, 4 days
Method: […]. Effect on cell proliferation was performed using the CellTiter-Blue*® viability assay or the CellTiter-Glo© Viability Assay as recommended by the manufacturer (Promega). […]. Fluorescence signal was measured at 560ex/590em nm using the Cytation3 multimodal plate reader (BioTek).
measurement.type: pEC50
Give bare numbers, as −log10 of the molar value.

Lookup: pEC50 lookup needed for CN1CCN(c2cc(C(=O)Nc3cc4cc(-c5cnn(C)c5)ccc4cn3)ccn2)CC1 , thanks.
Found: 6.99

Source listed as patent US20220062240A1.
